test: blockers of measles virus-induced cell death – single point, MLSMR library, absorbance, measles RdRp inhibitor project, primary screen (AID 841); conditions: Measles virus-infected cells, CPE protection, at 4 µM, stronger effect = higher value
Hit rate of the full screen: of about 140,000 compounds, about 2,100 (1.5%) were called active. Shown is part of a subset that was picked to be rich in actives.
Hi! Could you tag entries with protection (pct of control) below 10% as t, and those at or above as f? Much appreciated.

Check out these entries, answers already filled in.
compound=C=CCN(c1ccc(C(=O)Nc2cc(C)cc(C)c2)cc1)S(C)(=O)=O class_name=f
compound=CCOc1ccc(S(=O)(=O)n2ccnc2)c2ccccc12 class_name=f
compound=Cc1nn(Cc2ccc(Cl)cc2)c(Cl)c1/C=N/NC(=O)c1cccnc1 class_name=f
compound="CCn1nc(C(=O)OCC(=O)N2c3ccccc3CC2C)c2ccccc2c1=O (stereo not given)" class_name=f
compound=CCOC(=O)N1CCN(C(=O)Cc2ccc(-n3c(=S)[nH]c4ccccc4c3=O)cc2)CC1 class_name=f
compound=CCOC(=O)c1sc(NC(=O)COc2ncnc3ccccc23)c(C(=O)OCC)c1C class_name=f

Is protection (pct of control) of CCCC(=O)N1c2ccc(-c3csc(N)n3)cc2CC1C (stereo not given) strictly below 10%? f

Is the reported protection (pct of control) for Cc1ccc(NC(=O)CSCC(=O)NC2CCCCC2)cc1 strictly below 10%? f

====

experiment: blockers of measles virus-induced cell death – single point, MLSMR library, absorbance, measles RdRp inhibitor project, primary screen (AID 841); details: Measles virus-infected cells, CPE protection, at 4 µM
Among all 140,000 compounds or so, about 2,100 (1.5%) were called active. Cut-off read from the data, not from the text of the source: active = protection mostly above about 24% (no sharp cut-off); inactive = mostly below about 26%. This is one part of a sample in which actives are shown more often than they occur.
# valid calls are YES = active, NO = inactive; nothing else

Use the examples below as a reference point.
compound=CS(=O)(=O)c1ccc2nc(NC(=O)CN3CCCCCC3)sc2c1 class_name=NO
compound=Cc1cc(C)c(S(=O)(=O)c2ccccc2)c(OC(=O)c2c(F)cccc2Cl)n1 class_name=YES
compound=Cc1ccc(C)c(NC(=O)CSc2nnc(Cc3cccn3C)n2-c2ccc(F)cc2)c1 class_name=NO
compound="CCOCCCNC(=O)C(NC(=O)c1ccc(=O)[nH]c1)c1ccc(Cl)cc1 (configuration not stated)" class_name=YES
compound=CC(C)(C)NC(=O)CN(Cc1cccs1)C(=O)CNS(=O)(=O)c1ccccc1 class_name=NO

Any idea what this test logged for COc1ccc(/C=C/C(=O)Nc2ccc3c(c2)OCCO3)cc1OC ? NO

Can you look up the reported call for COc1ccc(CN2C(=O)CC(Cc3ccc(C)cc3)C2=O)cc1OC (configuration not stated) for me? NO

How did this test come out for COC(=O)c1sc(NC(=O)c2csc3c2CCCC3)nc1C ? YES

Short answer needed: outcome of this test for Cc1ccc(NC(=O)CN(C)Cc2ccc(F)cc2)c([N+](=O)[O-])c1 ? YES

How was CN(CC(=O)Nc1ccc(N2CCOCC2)cc1)CC(=O)Nc1ccccc1[N+](=O)[O-] classified in this test? NO

Lab log entry: Cc1nn(-c2ccccc2)c(Cl)c1/C=C/C(=O)c1ccc(O)cc1 — outcome as called in the assay? NO

So what was the verdict on Cc1ccc(-n2c(SCC(=O)Nc3ncc(Cl)cc3Cl)nc3ccccc32)cc1 in this test? YES

Look up the recorded call for Cc1ccc(C)c(NC(=O)CSc2nc3c(oc4ccccc43)c(=O)n2-c2ccccc2)c1 in this test. NO

Assay outcome for CN(c1ccccc1)S(=O)(=O)c1cccc(NC(=O)Cc2c(F)cccc2Cl)c1 : what was it? NO

// return assay outcome for Cc1nn(-c2ccccc2)c(Cl)c1C(=O)Nc1ccccc1 NO

Per the records of this test, what outcome belongs to CS(=O)(=O)c1ccc2nc(NC(=O)C3CCCCC3)sc2c1 ? YES

Kindly provide the recorded test outcome for the following compound: CC(=O)Cc1nsc(NC(=O)c2csc3c2CCCC3)n1 NO

Answer briefly: the call reported for CC1CN(S(=O)(=O)c2ccc(C(=O)Nc3sccc3C(N)=O)cc2)CC(C)O1 (configuration not stated) in this assay. NO

Given CCOCCCNC(=O)C(NC(=O)CNC(=O)c1ccccc1)c1ccc(C)cc1 (configuration not stated) , state the outcome it received in this test. NO

# fetch the recorded call for O=C(O)c1ccc2c(c1)C(=O)N(NC(=O)c1ccc(O)cc1)C2=O here NO

Lab log entry: CCOC(=O)CNC(=O)/C=C/c1c(Cl)cccc1Cl — outcome as called in the assay? NO

Recorded call for CC(=O)NNC1=Nc2ccccc2N(C)C(C)C1 (configuration not stated) ? NO

====

assay: blockers of measles virus-induced cell death – single point, MLSMR library, absorbance, measles RdRp inhibitor project, primary screen (AID 841); conditions: Measles virus-infected cells, CPE protection, at 4 µM, stronger effect = higher value
Out of some 140,000 compounds screened, about 2,100 (1.5%) were called active. Shown is part of a subset that was picked to be rich in actives.
Label scheme, based on protection (pct of control): low: < 9%; medium: ≥ 9% and < 20%; high: ≥ 20%

compound="CCCCC(NS(=O)(=O)c1ccc(C)cc1)C(=O)Oc1ccc2c3c(c(=O)oc2c1)CCC3 (stereo unspecified)" class_name=medium
compound=Cn1cccc1C(=O)Nc1nccs1 class_name=low
compound=Cc1ccc(Cl)cc1-c1ccc(/C=N/n2cnnc2)o1 class_name=high

Please classify: CC(=O)Nc1ccc(NC(=O)c2sc3nc4c(c(-c5ccc(C)cc5)c3c2N)CCC4)cc1 medium

Where would CN(Cc1ccccc1)C(=O)COC(=O)c1ccccc1Nc1ccccc1 land among the classes by reported protection (pct of control)? medium

Which band does Cc1cccc(CSc2nnc(Cn3c(=O)sc4ccccc43)n2C)c1 fall in? medium

Hello team, could you let me know which band the following compound falls into: CCc1ccc2nc3sc(C(=O)Nc4nnc(CC)s4)c(N)c3cc2c1 low

Band for Cc1ccc(NC(=O)c2sc3nc(N)c(C#N)cc3c2N)cc1 ? high

Exercise: read the entry CN1CCN(S(=O)(=O)c2ccc(NC(=O)C3CCCO3)cc2)CC1 (stereo unspecified) and state which class it falls under. high

Which protection (pct of control) category applies to CCCCCC(=O)NC(=S)NNC(=O)c1ccc([N+](=O)[O-])cc1 here? low

====

test: blockers of measles virus-induced cell death – single point, MLSMR library, absorbance, measles RdRp inhibitor project, primary screen (AID 841); conditions: Measles virus-infected cells, CPE protection, at 4 µM
In all, about 140,000 compounds went through this assay and about 2,100 (1.5%) were called active. Rule as the data show it: active = protection mostly above about 24% (no sharp cut-off); inactive = mostly below about 26%. The full list was thinned out, with actives kept by preference.
Pick from active, inactive when you respond.

Illustrative cases are given below, each with its answer.
molecule=Cc1ccc(C(C)(C)C)c(OCCCCN2CCCC2)c1 class_name=inactive
molecule=O=C(CN1CCCCCC1)N1c2ccccc2Sc2ccc(C(F)(F)F)cc21 class_name=active
molecule="Cc1ccccc1C(OCC(O)CN1CCCCC1CCO)c1ccccc1 (stereo unspecified)" class_name=inactive
molecule=CCCCc1cc2c(s1)CCCC/C2=N/O class_name=inactive
molecule=COc1cc(/C=C/C(=O)N2c3ccccc3Sc3ccc(C(F)(F)F)cc32)cc(OC)c1OC class_name=inactive

Now look at this one.
# lookup: test call for Cc1ccccc1C(CC(=O)c1cccs1)C(C#N)C#N (stereo unspecified) inactive

====

assay: blockers of measles virus-induced cell death – single point, MLSMR library, absorbance, measles RdRp inhibitor project, primary screen (AID 841); conditions: Measles virus-infected cells, CPE protection, at 4 µM, stronger effect = higher value
Among all 140,000 compounds or so, about 2,100 (1.5%) were called active. For the sample, actives were picked, then their nearest neighbours and some compounds at random.
Parameter: protection (pct of control) (%)
Report the value in % with no unit label.

Known protection (pct of control) results, listed for orientation:
compound="Cc1cc(C)c(C2C3=C(Nc4c2c(C)nn4-c2ccccn2)c2ccccc2C3=O)c(C)c1 (stereo unspecified)" numeric_readout=7.66
compound=CC(C)CNC(=O)COC(=O)/C=C/c1ccco1 numeric_readout=16.1
compound=CCCCC(=O)Nc1ccc2c(c1)OCCO2 numeric_readout=11
compound="Cc1ccc(S(=O)(=O)N2CCCC2C(=O)OCc2nc3sc(C)c(C)c3c(=O)[nH]2)cc1 (stereo unspecified)" numeric_readout=4.09
compound=Cc1ccc(SCC(=O)Nc2ccc3c(c2)OCCO3)cc1 numeric_readout=26.6

Item under review: CCCCOc1ccc(C(=O)NN2CCN(C)CC2)cc1 . Reported protection (pct of control)? 24.4

====

assay: blockers of measles virus-induced cell death – single point, MLSMR library, absorbance, measles RdRp inhibitor project, primary screen (AID 841); conditions: Measles virus-infected cells, CPE protection, at 4 µM
Hit rate of the full screen: of about 140,000 compounds, about 2,100 (1.5%) were called active. Rule as the data show it: active = protection mostly above about 24% (no sharp cut-off); inactive = mostly below about 26%. The full list was thinned out, with actives kept by preference.
# output must be one of class 1 (active), class 0 (inactive)

Given Cc1ccc(N2C(=O)C(NC(=O)c3c(F)cccc3F)(C(F)(F)F)C3=C2CC(C)(C)CC3=O)cc1 (stereo not given) , state the outcome it received in this test. class 0

How did this test come out for CC(OC(=O)CNS(=O)(=O)/C=C/c1ccccc1)C(=O)Nc1ccc(S(=O)(=O)N2CCCC2)cc1 (stereo not given) ? class 0
